Target: UniProt P41594
Assay: Calcium flux assay (fura-2, glutamate-evoked [Ca2+]i)
Conditions: hmGluR5a/L38-20 mouse fibroblast Ltk- cells; 10 μM glutamate (EC80); read-out: mGluR5 inhibitory activity, IC50
Protocol: The compounds of this invention were tested against the hmGluR5a receptor stably expressed in mouse fibroblast Ltk-cells (the hmGluR5a/L38-20 cell line) and activity was detected by changes in [Ca^++]i, measured using the fluorescent Ca^++-sensitive dye, fura-2. InsP assays were performed in mouse fibroblast Ltk^− cells (LM5a cell line) stably expressing hmGluR5a. The assays described in International Patent Publication WO 0116121 can be used. […]
pIC50: −log10 of the molar value.
result-type: pIC50

Input: Fill in reported pIC50 for this entry: CN1CCN(c2ccc(-n3cc(-c4ccc5ccccc5n4)cn3)cc2)C1=O
Output: < 5.70

Input: Return pIC50 (reported value) for this compound: Cc1cc(-c2cnn(-c3ccc(N4CCN(C)C4=O)cc3)c2)nc2ccccc12
Output: < 5.70

Input: Look up and report measured pIC50 for this entry: Cc1ccncc1-c1cc(F)cc(-c2cnn(-c3ccccn3)c2)c1
Output: < 5.70

Input: Give a short answer stating reported pIC50 for c1ccc(-c2cnn(-c3ccc(C4CCCCC4)cc3)c2)nc1 .
Output: < 5.70

Input: Name the recorded pIC50 of the compound listed here: c1ccc(-c2cnn(-c3cccc(-c4cccnc4)c3)c2)nc1
Output: > 5.70

Input: Note pIC50 for the compound shown: c1ccc(-c2ccccc2-n2cc(-c3ccncn3)cn2)cc1
Output: < 5.70

Input: Specify pIC50 for Clc1cc(-c2cccnc2)cc(-c2cnn(-c3ccccn3)c2)c1 and stop.
Output: > 5.70

Input: Name the recorded pIC50 of the item c1ccc(-c2cnn(-c3cccc(-c4cccnc4)n3)c2)nc1 in your answer.
Output: < 5.70

Input: Provide only the value of recorded pIC50 for c1ccc(-c2cnn(-c3ccc(-c4cccnc4)cc3)c2)nc1
Output: < 5.70

* * *

Biological target: hmGluR5a receptor (Homo sapiens)
Construct: expressed in transfected cells; host or cells: mouse fibroblast Ltk- cells (hmGluR5a/L38-20 cell line)
Assay: Calcium flux assay (fura-2, glutamate-evoked [Ca2+]i)
Type: cell-based
Conditions: hmGluR5a/L38-20 mouse fibroblast Ltk- cells; 10 μM glutamate (EC80); read-out: mGluR5 inhibitory activity, IC50
Structures can show the parent of a compound that is named as a salt.
I'd appreciate it if you could supply IC50 values for the items below.

Input: Tell me measured IC50 for Fc1cc(-c2cnn(-c3ccccn3)c2)ccc1-c1ccccn1 please.
Output: > 2000 nM

Input: Read the entry c1ccc2nc(-c3cnn(-c4ccc(C5CCCCC5)cc4)c3)cnc2c1 and write its reported IC50.
Output: > 2000 nM

Input: Answer with the recorded IC50 of c1ccc(-c2cccc(-n3cc(-c4ccncn4)cn3)c2)cc1 only.
Output: > 2000 nM

Input: Identify the reported IC50 for the following entry. c1ccc(-c2ccc(-n3cc(-c4ccccn4)cn3)cc2)cc1
Output: > 2000 nM

Input: In one line, give reported IC50 of the entry c1ccc(-c2cccc(-n3cc(-c4ccccn4)cn3)c2)cc1 [Example 6] .
Output: < 2000 nM

Input: Indicate the recorded IC50 value for this compound: CN1CCN(c2ccc(-n3cc(-c4ccncn4)cn3)cc2)C1=O
Output: > 2000 nM

Input: Give IC50 for CN1CCN(c2ccc(-n3cc(-c4cnc5ccccc5n4)cn3)cc2)C1=O
Output: > 2000 nM

Input: Answer with the recorded IC50 of Clc1cc(-c2cccnc2)cc(-n2cc(-c3ccccn3)cn2)c1 only.
Output: < 2000 nM

Input: Hello, please tell me recorded IC50 for this one: c1ccc(-c2ccc(-n3ccc(-c4ccccn4)n3)cc2)cc1 [Example 9, hydrochloride]
Output: > 2000 nM

Input: Hello, please tell me recorded IC50 for this one: COc1cc(-c2cnn(-c3ccccn3)c2)ccc1-c1ccccn1
Output: < 2000 nM

Input: Kindly indicate its recorded IC50. Item: c1cc(-c2cnn(-c3ccc(C4CCCCC4)cc3)c2)ncn1
Output: > 2000 nM

Input: Find the measured IC50 of c1ccc(-c2ccccc2-n2cc(-c3ccccn3)cn2)cc1 and report it.
Output: > 2000 nM

Input: Quickly give me recorded IC50 for Clc1cc(-c2cnn(-c3ccccn3)c2)cc(-n2ccc3ccncc32)c1
Output: > 2000 nM

Input: Given c1ccc(-c2cnn(-c3cccc(-c4ccncc4)c3)c2)nc1 , respond with its IC50.
Output: > 2000 nM

* * *

Biological target: hmGluR5a receptor (Homo sapiens, UniProt P41594)
Sequence (P41594 21-1180 isoform P41594-2 limits assumed): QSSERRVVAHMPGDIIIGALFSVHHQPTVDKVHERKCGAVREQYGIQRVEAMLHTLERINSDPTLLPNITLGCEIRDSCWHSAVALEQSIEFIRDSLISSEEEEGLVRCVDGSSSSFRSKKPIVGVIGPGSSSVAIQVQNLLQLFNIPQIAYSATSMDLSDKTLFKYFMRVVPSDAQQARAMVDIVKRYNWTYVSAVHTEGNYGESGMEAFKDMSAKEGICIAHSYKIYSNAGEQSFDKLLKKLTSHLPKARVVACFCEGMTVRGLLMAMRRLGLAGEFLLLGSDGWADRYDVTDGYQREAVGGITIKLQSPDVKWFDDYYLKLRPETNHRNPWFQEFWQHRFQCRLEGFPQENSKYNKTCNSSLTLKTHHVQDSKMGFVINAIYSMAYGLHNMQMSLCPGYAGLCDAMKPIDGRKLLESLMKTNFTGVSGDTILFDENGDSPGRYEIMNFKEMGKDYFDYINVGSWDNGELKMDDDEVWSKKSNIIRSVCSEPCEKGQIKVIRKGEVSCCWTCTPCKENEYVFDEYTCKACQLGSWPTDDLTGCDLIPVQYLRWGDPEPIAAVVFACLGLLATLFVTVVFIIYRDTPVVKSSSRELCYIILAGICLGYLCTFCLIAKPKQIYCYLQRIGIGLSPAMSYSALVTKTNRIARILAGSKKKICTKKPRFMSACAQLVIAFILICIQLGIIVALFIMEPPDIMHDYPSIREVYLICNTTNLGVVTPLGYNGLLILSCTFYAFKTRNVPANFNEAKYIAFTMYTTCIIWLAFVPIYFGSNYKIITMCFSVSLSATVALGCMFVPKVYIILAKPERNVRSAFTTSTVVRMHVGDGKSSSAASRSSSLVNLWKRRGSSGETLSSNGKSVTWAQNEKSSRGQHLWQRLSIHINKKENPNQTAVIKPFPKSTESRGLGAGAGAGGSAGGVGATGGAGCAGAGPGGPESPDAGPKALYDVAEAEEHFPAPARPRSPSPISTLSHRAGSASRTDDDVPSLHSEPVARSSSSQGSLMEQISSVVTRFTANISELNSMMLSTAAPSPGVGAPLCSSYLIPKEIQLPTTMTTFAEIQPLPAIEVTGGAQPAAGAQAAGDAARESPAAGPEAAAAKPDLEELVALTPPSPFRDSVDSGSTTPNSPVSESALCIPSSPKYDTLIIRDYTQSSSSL
Assay: Calcium flux assay (fura-2, glutamate-evoked [Ca2+]i)
Settings: hmGluR5a/L38-20 mouse fibroblast Ltk- cells; 10 μM glutamate (EC80); read-out: mGluR5 inhibitory activity, IC50
Field: IC50. Provide a value for each of the molecules that follow.

Input: Tell me measured IC50 for c1ccc(-c2cccc(-c3cnn(-c4ccccn4)c3)c2)cc1 please.
Output: > 2000 nM

Input: Fill in IC50 for record Fc1cc(-c2nn[nH]n2)cc(-n2ccc(-c3ccccn3)n2)c1
Output: < 2000 nM

Input: // fetch IC50 given entry Cc1cc(-c2cnn(-c3ccc(C4CCCCC4)cc3)c2)nc2ccccc12
Output: > 2000 nM

Input: Identify measured IC50 associated with c1ccc(-c2cccc(-n3cc(-c4ccccn4)cn3)c2)nc1
Output: < 2000 nM

Input: Determine its reported IC50: c1ccc(-c2ccc(-n3cc(-c4ccncn4)cn3)cc2)cc1
Output: > 2000 nM

Input: State its IC50: Cc1cc(-c2cnn(-c3ccc(N4CCNC4=O)cc3)c2)nc2ccccc12
Output: > 2000 nM

Input: Please supply the value of reported IC50 for the item c1ccc2nc(-c3cnn(-c4ccc(C5CCCCC5)cc4)c3)ccc2c1
Output: > 2000 nM

Input: Given c1ccc(-c2cccc(-n3cc(-c4ccccn4)cn3)c2)cc1 [Example 31] , respond with its IC50.
Output: > 2000 nM

Input: Identify measured IC50 corresponding to c1ccc(-c2ccc(-n3cc(-c4ccccn4)cn3)cc2)nc1
Output: > 2000 nM
